Form field: pIC50 (one value per entry).
Experimental System: HLA-DP molecule DPB1*2001 (human)
Assay Protocol: inhibition of radiolabeled peptide binding to purified HLA-DP
By convention, pIC50 is the negative base-10 log of a molar concentration.

NDKFTVFEGAFNKAI [Pha a 5 peptide, position 181, NDKFTVFEGAFNKAI (Peptide ID 3324.1442)]
7.01
DAYVATLTEALRVIA [Lol p 5 1 peptide, position 151, DAYVATLTEALRVIA (Peptide ID 3324.1167)]
6.22
MRNVFDDVVPADFKV [Lol p 2 peptide, position 76, MRNVFDDVVPADFKV (Peptide ID 3337.0030)]
7.09
FKAAVAAAAGAPPAD [Poa p 5 peptide, position 61, FKAAVAAAAGAPPAD (Peptide ID 3324.1575)]
5.53
DSYKFIPTLVAAVKQ [Lol p 5 1 peptide, position 236, DSYKFIPTLVAAVKQ (Peptide ID 3324.1165)]
7.92

Can you share its pIC50? I mean this binder: NVFDEVIPTAFTVGK [Lol p 3 peptide, position 76, NVFDEVIPTAFTVGK (Peptide ID 3324.1141)] 4.88

Next binder: ATPEAKFDSFVAAFT [Poa p 5 peptide, position 121, ATPEAKFD5FVAAFT as printed in Table 8 (Peptide ID 3324.1570)] 5.49

Next binder: DAFIAALTEALRVIA [Pha a 5 peptide, position 121, DAFIAALTEALRVIA (Peptide ID 3324.1432)] 7.51

Next binder: DINVGFKAAVAAAAG [Poa p 5 peptide, position 56, DINVGFKAAVAAAAG (Peptide ID 3324.1571)] 6.53

Origin of the recorded values: patent US20150004189A1
